# measurement.description: High-throughput drug toxicity screening in the BPDCN cell line Cal-1 (AID 1224825);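 note: cells exposed to compounds for 48 h; 100% = DMSO and 0% = bortezomib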
# measurement.parameters: Cal-1 BPDCN cell viability, qHTS; at 45.8 µM (top of the series) unless noted
assay.endpoint: viability (% of control) (%)
Note: unit % is implicit; provide only the numeric part.

Problem: Give the reported viability (% of control) for this compound. Cc1cnc(NC(=O)Nc2cc(Br)c(C)cc2OC[C@@H]2CNCCO2)cn1
Solution: 7.84

Problem: Retrieve viability (% of control) measured for COc1cccc2c1C(=O)c1c(O)c3c(c(O)c1C2=O)C[C@@](O)(C(=O)CO)C[C@@H]3O[C@H]1C[C@H](N)[C@H](OC2CCCCO2)[C@H](C)O1 (stereo partly drawn) and print it.
Solution: 1.87

Problem: For the compound NC(=O)N1CCC(CC(=O)N2CCC([C@H]3c4ncc(Br)cc4CCc4cc(Cl)cc(Br)c43)CC2)CC1 , give its measured viability (% of control) value.
Solution: 6.4

Problem: Name the recorded viability (% of control) of the item C[N+]1(C)[C@@H]2C[C@@H](OC(=O)C(O)(c3cccs3)c3cccs3)C[C@H]1[C@@H]1O[C@@H]12 in your answer.
Solution: 97.5

Problem: Name the recorded viability (% of control) of the compound listed here: CCCCCN=C(N)NN=Cc1c[nH]c2ccc(OC)cc12
Solution: 11.8

Problem: Hello, please tell me recorded viability (% of control) for this one: CCOC(=O)C=C[C@H](C[C@@H]1CCNC1=O)NC(=O)[C@@H](CC(=O)[C@@H](NC(=O)c1cc(C)on1)C(C)C)Cc1ccc(F)cc1
Solution: 107

Problem: Provide viability (% of control) value for the following compound: O=c1[nH]c(=O)n([C@H]2C[C@@H](O)[C@@H](CO)O2)cc1F
Solution: 19.4

Problem: Recall and state the measured viability (% of control) for C[C@H]1O[C@H](O[C@H]2[C@H](O)[C@@H](O)[C@@H](O[C@H]3[C@H](O)[C@@H](O)C(O)O[C@H]3CO)O[C@H]2CO)[C@H](O)[C@@H](O)[C@H]1N[C@H]1C=C(CO)[C@@H](O)[C@H](O)[C@@H]1O (stereo partly drawn) .
Solution: 134
